# System: A549 NSCLC
# assay_summary: NCI tumour cell line growth inhibition, 48 h
As shown below, each of these compounds has a reported TGI value.

Some entries whose results are on file:
- CN(C)CCC(C(=O)C(C)(C)C)c1ccccn1 (configuration not stated): > 100 µM
- COC(=O)CNC(=O)Nc1cc(N2C(=O)ON3C2C(C)(C)N(O)C3(C)C)ccc1C (configuration not stated): > 100 µM
- CCOC(=O)N1CCC(=O)C[C@@H]1C/C=C/P1(=O)O[C@H](c2ccccc2)C(C)N1C(C)C (some centres not stated): > 100 µM
- Cc1cc2c(=O)[nH]nc(N)c2c(N)n1: > 100 µM

Q: Fill in reported TGI for this entry: Cc1cc(C)c2[s+]snc2c1
Ans: > 100 µM

Q: Fill in reported TGI for this entry: CC(C)(C)c1cc(C(C)(C)C)c2sc(=S)oc2c1O
Ans: > 41.3 µM

Q: Fill in reported TGI for this entry: N#CC(c1ccccc1)(c1ccccc1)[C@@H](c1ccccc1)[C@H](Cc1ccccc1)NS(=O)(=O)c1ccccc1
Ans: > 100 µM

Q: Fill in reported TGI for this entry: O=C(Nc1ccc(S(=O)(=O)NC2CCCCCC2)cc1)C(c1ccccc1)S(=O)(=O)c1ccc(F)cc1 (configuration not stated)
Ans: 2.9 µM

Q: Fill in reported TGI for this entry: CC(C)[O-].CC(C)[O-].[O-]c1cccc2cccnc12.[O-]c1cccc2cccnc12.[Ti+4]
Ans: > 100 µM

Q: Fill in reported TGI for this entry: CCCc1ccc(OCC(=O)N/N=C/c2c(-c3ccccc3)[nH]c3ccccc23)cc1
Ans: > 100 µM

meta.source: PubChem BioAssay (NCI)
